- Target desc: Cathepsin B (Homo sapiens)
- Construct: purchased Biovision K147-100
- Assay text: IC50 determination against Cathepsin B (Biovision kit K147-100)
- Assay type: biochemical
- Experimental parameters: Table 3; average ± STDEV; read-out: Cathepsin B IC50
IC50: recorded values
Hi! Could you send only the number? It should be in nM, unit omitted.

Consider the worked cases shown below.
{"Molecule": "CCOC(=O)[C@H]1O[C@@H]1C(=O)N[C@@H](CCSC)C(=O)N1CCC(c2ccccc2)CC1 [Compound 13]", "Scale unit": "nM", "IC50": 4.2}
{"Molecule": "CCOC(=O)[C@H]1O[C@@H]1C(=O)N[C@@H](CCSC)C(=O)NC(CC)CC [Compound 39]", "Scale unit": "nM", "IC50": 74.3}
{"Molecule": "CCOC(=O)[C@H]1O[C@@H]1C(=O)N[C@@H](CCSC)C(=O)NCCc1cccc(F)c1 [Compound 34]", "Scale unit": "nM", "IC50": 24.1}

Request: I have this molecule here, CCOC(=O)[C@H]1O[C@@H]1C(=O)N[C@@H](CCSC)C(=O)NCCCc1ccccc1 [Compound 8] , and I need its recorded IC50.
Response: 19.2

Request: Then CCOC(=O)[C@H]1O[C@@H]1C(=O)N[C@@H](CCSC)C(=O)NCCCCc1ccccc1 [Compound 40] ?
Response: 23.7

Request: Then CCOC(=O)[C@H]1O[C@@H]1C(=O)N[C@@H](CC(C)C)C(=O)NCCC(C)C [zxy-37, E64d, reference compound] ?
Response: 12

Request: Then CCCCCCNC(=O)[C@H](CCSC)NC(=O)[C@H]1O[C@@H]1C(=O)OCC [Compound 5] ?
Response: 8.27

====

IC50: recorded values
- Target desc: Cathepsin B (Homo sapiens, UniProt P07858)
- Construct: purchased Biovision K147-100
- Assay text: IC50 determination against Cathepsin B (Biovision kit K147-100)
- Format: biochemical
- Experimental parameters: CTSB; Exp-1; read-out: IC50 (nM) Exp-1
Hi! Could you send only the number? It should be in nM, unit omitted.

{"Compound": "CCOC(=O)[C@H]1O[C@@H]1C(=O)N[C@@H](CC(C)C)C(=O)NCCC(C)C [zxy-37, E64d, reference compound]", "Target desc": "Cathepsin B (Homo sapiens, UniProt P07858)", "IC50 [nM]": 10.6}

Request: I have this compound here, CCOC(=O)[C@H]1O[C@@H]1C(=O)N[C@@H](CCSC)C(=O)NC(CC)CC , and I need its recorded IC50.
Response: 68.5

Request: Then CCOC(=O)[C@H]1O[C@@H]1C(=O)N[C@@H](CCSC)C(=O)NCCCCc1ccccc1 ?
Response: 20.3

Request: Then CCCCCCNC(=O)[C@H](CCSC)NC(=O)[C@H]1O[C@@H]1C(=O)OCC ?
Response: 7.19

Request: Then CCOC(=O)[C@H]1O[C@@H]1C(=O)N[C@@H](CCSC)C(=O)N1CCC(c2ccccc2)CC1 ?
Response: 3.76

Request: Then CCOC(=O)[C@H]1O[C@@H]1C(=O)N[C@@H](CCSC)C(=O)NCCCc1ccccc1 ?
Response: 17.6

Request: Then CCOC(=O)[C@H]1O[C@@H]1C(=O)N[C@@H](CCSC)C(=O)NCCc1cccc(F)c1 ?
Response: 22.3

====

pIC50: recorded values
- Target desc: Cathepsin B (Homo sapiens)
- Construct: purchased Biovision K147-100
- Assay text: IC50 determination against Cathepsin B (Biovision kit K147-100)
- Format: biochemical
- Experimental parameters: CTSB; average of Exp-1 and Exp-2; read-out: Ave of IC50
Remember the convention: pIC50 equals -log10 of concentration in molar.

Consider the worked cases shown below.
{"Compound": "CCOC(=O)[C@H]1O[C@@H]1C(=O)N[C@@H](CCSC)C(=O)N1CCC(c2ccccc2)CC1", "Value type": "pIC50", "Value": 8.38}
{"Compound": "CCOC(=O)[C@H]1O[C@@H]1C(=O)N[C@@H](CC(C)C)C(=O)NCCC(C)C [zxy-37, E64d, reference compound]", "Value type": "pIC50", "Value": 7.92}
{"Compound": "CCOC(=O)[C@H]1O[C@@H]1C(=O)N[C@@H](CCSC)C(=O)NCCCCc1ccccc1", "Value type": "pIC50", "Value": 7.63}

Pending compound:
Request: I have this compound here, CCCCCCNC(=O)[C@H](CCSC)NC(=O)[C@H]1O[C@@H]1C(=O)OCC , and I need its recorded pIC50.
Response: 8.08

====

- Target desc: Cathepsin K (Homo sapiens)
- Construct: purchased Biovision K150-100
- Sequence (P43235 115-329): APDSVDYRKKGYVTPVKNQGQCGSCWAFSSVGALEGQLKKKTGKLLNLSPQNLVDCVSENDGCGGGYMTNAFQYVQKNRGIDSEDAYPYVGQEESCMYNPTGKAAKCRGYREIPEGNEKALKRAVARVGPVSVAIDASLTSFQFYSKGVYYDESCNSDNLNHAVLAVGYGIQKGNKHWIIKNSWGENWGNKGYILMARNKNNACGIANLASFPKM
- Assay text: IC50 determination against Cathepsin K (Biovision kit K150-100)
- Type: biochemical
- Experimental parameters: CTSK; average of Exp-1 and Exp-2; read-out: Ave of IC50
IC50: recorded values
Hi! Could you send only the number? It should be in nM, unit omitted.

Request: Find IC50 (Cathepsin K (Homo sapiens)) for the entry CCOC(=O)[C@H]1O[C@@H]1C(=O)N[C@@H](CCSC)C(=O)NCCCCc1ccccc1 [Compound 40]
Response: 655

Request: Then CCCCCCNC(=O)[C@H](CCSC)NC(=O)[C@H]1O[C@@H]1C(=O)OCC [Compound 5] ?
Response: 1500

====

- Target desc: Cathepsin K (Homo sapiens)
- Construct: purchased Biovision K150-100
- Assay text: Preliminary screening of Cathepsin K (Cathepsin K Inhibitor Screening Kit K150-100, Biovision)
- Assay type: biochemical
- Experimental parameters: 10 μM compound; replicate 2; relative inhibition rate vs 10 μM FF-FMK control
Is Inhibition % (10 μM) replicate 2 at least 50%? Then MET. If not, NOT MET.

Some solved cases for reference:
{"Molecule": "CCOC(=O)[C@H]1O[C@@H]1C(=O)N[C@H](CSCc1ccccc1)C(=O)NCC(C)CC (some centres unmarked)", "Class assignment": "NOT MET"}
{"Molecule": "CCOC(=O)[C@H]1O[C@@H]1C(=O)N[C@@H](CC(C)C)C(=O)NCCC(C)C [zxy-37, E64d, reference compound]", "Class assignment": "MET"}
{"Molecule": "CCOC(=O)[C@H]1O[C@@H]1C(=O)N[C@H](CSCc1ccccc1)C(=O)NCCc1ccc(OC)cc1", "Class assignment": "MET"}
{"Molecule": "CCOC(=O)[C@H]1O[C@@H]1C(=O)N[C@@H](CCSC)C(=O)NCCC(C)C", "Class assignment": "NOT MET"}

Proceed to the following item.
Request: Is the recorded value of Inhibition % (10 μM) replicate 2 equal to or greater than 50% for this molecule? CCCNC(=O)[C@H]1O[C@@H]1C(=O)N[C@H](C(=O)N1CCC[C@H]1C(=O)O)[C@@H](C)CC [zxy-60, CA-074, reference compound]
Response: MET

====

- Target desc: Cathepsin K (Homo sapiens, UniProt P43235)
- Construct: purchased Biovision K150-100
- Assay text: IC50 determination against Cathepsin K (Biovision kit K150-100)
- Type: biochemical
- Experimental parameters: CTSK; Exp-2; read-out: IC50 (nM) Exp-2
Mark each entry t if its IC50 sits below 600 nM, and f for all others.

{"Molecule": "CCOC(=O)[C@H]1O[C@@H]1C(=O)N[C@@H](CCSC)C(=O)N1CCC(c2ccccc2)CC1", "Target desc": "Cathepsin K (Homo sapiens, UniProt P43235)", "Class assignment": "t"}

Request: Please let me know if CCCCCCNC(=O)[C@H](CCSC)NC(=O)[C@H]1O[C@@H]1C(=O)OCC shows IC50 below 600 nM.
Response: f

Request: Then CCCNC(=O)[C@H]1O[C@@H]1C(=O)N[C@H](C(=O)N1CCC[C@H]1C(=O)O)[C@@H](C)CC [zxy-60, CA-074, reference compound] ?
Response: t

Request: Then CCOC(=O)[C@H]1O[C@@H]1C(=O)N[C@@H](CCSC)C(=O)NCCCc1ccccc1 ?
Response: f

====

inhibition at 10 µM: recorded values
- Target desc: Cathepsin K (Homo sapiens, UniProt P43235)
- Construct: purchased Biovision K150-100
- Assay text: Preliminary screening of Cathepsin K (Cathepsin K Inhibitor Screening Kit K150-100, Biovision)
- Type: biochemical
- Experimental parameters: 10 μM compound; replicate 1; relative inhibition rate vs 10 μM FF-FMK control; read-out: Inhibition % (10 μM) replicate 1
Hi! Could you send only the number? It should be in %, unit omitted.

{"Smiles notation": "CCOC(=O)[C@H]1O[C@@H]1C(=O)N[C@@H](CCSC)C(=O)NCC(C)C", "Value type": "inhibition at 10 µM", "Value": 29.2}
{"Smiles notation": "CCOC(=O)[C@H]1O[C@@H]1C(=O)N[C@@H](CCSC)C(=O)N1CCOCC1", "Value type": "inhibition at 10 µM", "Value": 44}
{"Smiles notation": "CCOC(=O)[C@H]1O[C@@H]1C(=O)N[C@@H](CCSC)C(=O)NCCc1cccc(F)c1", "Value type": "inhibition at 10 µM", "Value": 94.4}

Pending molecule:
Request: I have this molecule here, CCOC(=O)[C@H]1O[C@@H]1C(=O)N[C@@H](CSCc1ccccc1)C(=O)NCCCCc1ccccc1 , and I need its recorded inhibition at 10 µM.
Response: 36.3

Reference source for all entries: patent US10647690B2
